Sourced from patent US11414425B2

- Experimental target: GABAA receptors (α5β2γ2) (Homo sapiens, UniProt P18507+P31644)
- Construct: expressed in transfected cells
- Sequence (P31644 32-462): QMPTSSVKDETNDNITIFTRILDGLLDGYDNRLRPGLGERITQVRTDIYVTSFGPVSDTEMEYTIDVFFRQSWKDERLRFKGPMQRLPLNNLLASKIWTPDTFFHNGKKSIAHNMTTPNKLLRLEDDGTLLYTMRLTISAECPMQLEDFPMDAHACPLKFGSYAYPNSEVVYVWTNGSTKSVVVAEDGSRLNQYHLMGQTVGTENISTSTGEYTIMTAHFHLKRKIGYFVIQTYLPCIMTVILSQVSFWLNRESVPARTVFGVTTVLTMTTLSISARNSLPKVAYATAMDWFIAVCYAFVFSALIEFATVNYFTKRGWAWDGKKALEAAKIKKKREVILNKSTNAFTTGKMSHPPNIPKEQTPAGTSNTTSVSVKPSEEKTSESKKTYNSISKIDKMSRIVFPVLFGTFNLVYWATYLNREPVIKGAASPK
- Sequence (P47870 25-512, further chain): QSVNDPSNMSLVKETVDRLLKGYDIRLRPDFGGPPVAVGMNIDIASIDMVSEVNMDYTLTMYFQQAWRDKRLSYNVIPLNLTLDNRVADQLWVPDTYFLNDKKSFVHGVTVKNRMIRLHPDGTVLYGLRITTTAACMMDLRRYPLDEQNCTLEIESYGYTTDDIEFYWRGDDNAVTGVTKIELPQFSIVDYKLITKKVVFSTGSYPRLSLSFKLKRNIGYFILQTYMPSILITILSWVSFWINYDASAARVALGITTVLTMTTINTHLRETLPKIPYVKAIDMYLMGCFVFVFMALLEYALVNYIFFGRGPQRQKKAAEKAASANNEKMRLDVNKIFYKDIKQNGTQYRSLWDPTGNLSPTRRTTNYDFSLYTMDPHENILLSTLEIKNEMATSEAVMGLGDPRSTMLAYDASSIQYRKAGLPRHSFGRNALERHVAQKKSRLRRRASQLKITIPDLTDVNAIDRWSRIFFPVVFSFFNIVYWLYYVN
- Sequence (P18507 40-475): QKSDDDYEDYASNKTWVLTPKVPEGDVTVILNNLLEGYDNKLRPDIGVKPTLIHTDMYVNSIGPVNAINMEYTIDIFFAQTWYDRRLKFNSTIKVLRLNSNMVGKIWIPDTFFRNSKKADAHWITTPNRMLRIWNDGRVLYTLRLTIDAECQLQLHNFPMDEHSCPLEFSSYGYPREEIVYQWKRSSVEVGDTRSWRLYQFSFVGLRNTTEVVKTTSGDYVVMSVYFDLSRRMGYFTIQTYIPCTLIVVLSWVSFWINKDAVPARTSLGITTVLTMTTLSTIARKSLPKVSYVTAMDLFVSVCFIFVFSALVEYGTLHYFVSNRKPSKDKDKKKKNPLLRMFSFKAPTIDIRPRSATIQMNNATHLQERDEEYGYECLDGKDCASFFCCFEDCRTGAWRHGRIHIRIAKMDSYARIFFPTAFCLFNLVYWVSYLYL
- Experiment notes: Positive allosteric modulator activity: potentiation of EC20 GABA current in oocytes
- Assay type: cell-based
- Details: read-out: GABA α5 Functional Data (potentiation of EC20 GABA); @ 100 nM; ranges
activation at 0.1 µM for assorted compounds

>>> endpoint_value("COc1ccc2c(c1)-n1nncc1Cc1c(C3=NC[C@H](c4ccccc4)O3)ncn1-2")
"5 to 20%"
>>> endpoint_value("COc1ccc2c(c1)-n1nncc1Cc1c(C#Cc3ccnn3C)ncn1-2")
"> 50%"
>>> endpoint_value("COCc1nnn2c1Cc1c(C#Cc3cncc(C)c3)ncn1-c1ccc(Cl)cc1-2")
"20 to 50%"
>>> endpoint_value("Cc1ncc(C#Cc2ncn3c2Cc2cnnn2-c2cc(Cl)ccc2-3)n1C")
"20 to 50%"

# evaluate next
Item: "COCc1nnn2c1Cc1c(C#Cc3ccc(OC)nc3)ncn1-c1ccc(Cl)cc1-2" | activation at 0.1 µM: 20 to 50%
